FYI, the data here is from PubChem BioAssay (NCI).

- System: RPMI-8226 leukemia
- experimental-details: NCI-60 one-dose screen, 48 h (100 = growth as untreated, 0 = no growth, -100 = all killed)
- measurement-context: 10 µM unless noted
The panel holds about 83,000 compounds, 20% with a hit somewhere; the sample as a whole holds those more often.
Hi, to clarify the labels: 1 (yes) covers growth from 40% upward, 0 (no) covers anything below 40%.

compound: Cc1nccc2c3ccc(OCc4cn(-c5ccc(Cl)cc5)nn4)cc3n(CCCc3ccccc3)c12
class-label: 0 (no)

compound: COc1ccc(C2=C(c3ccccc3)c3ccc(OC(C)=O)cc3OC2(C)C)cc1
class-label: 0 (no)

compound: COc1ccccc1C(C[N+](=O)[O-])c1c(-c2ccccc2)[nH]c2cc(C)ccc12 (centres undefined)
class-label: 1 (yes)

compound: c1ccc(N2N=C(c3cccc(Nc4ccncc4)c3)CC2c2ccc3c(c2)OCO3)cc1 (centres undefined)
class-label: 0 (no)

compound: C=C(C)[C@@H]1CC[C@]2(C(=O)NCCCN(CCC#N)CCC#N)CC[C@]3(C)[C@H](CC[C@@H]4[C@@]5(C)CCC(=O)C(C)(C)[C@@H]5CC[C@]43C)[C@@H]12
class-label: 1 (yes)

compound: CCNC(=O)c1[nH]cc(-c2ccc(OC)cc2)c1-c1cc(OC)c(OC)c(OC)c1
class-label: 0 (no)

compound: CCSc1ccc2c(c1)N(CCCN1CCN(C)CC1)c1ccccc1S2
class-label: 0 (no)

compound: Nc1cc(N)c2cccnc2c1O
class-label: 1 (yes)

compound: O=S(=O)(NCCCNc1nccc(-c2c(-c3ccccc3)nc3occn23)n1)c1ccc(Cl)cc1
class-label: 1 (yes)

----------
- System: SNB-19 CNS
- experimental-details: NCI-60 one-dose screen, 48 h (100 = growth as untreated, 0 = no growth, -100 = all killed)
- measurement-context: 10 µM unless noted
This is part of a sample that, as a whole, favours compounds with a hit. Of some 83,000 tested, about 20% had one in any assay.
# Lookup of reported growth keyed by entry

compound: O=C1/C(=C\c2cn(Cc3ccccc3)c3ccc(Br)cc23)c2ccccc2N1c1c(Cl)cccc1Cl
unit-abbrev: %
growth: 90.9
--
compound: O=C(Nc1cccc(Cl)c1)c1cc(Cl)ccc1O
unit-abbrev: %
growth: 15.9
--
compound: CN1CCN(c2ccc(NC3=C(Cl)C(=O)c4ncccc4C3=O)cc2C#N)CC1
unit-abbrev: %
growth: 96.8
--
compound: O=C(CN1CCOCC1)Nc1ccc2ncnc(Nc3ccc(Oc4cccc(C(F)(F)F)c4)c(Cl)c3)c2c1
unit-abbrev: %
growth: 61.9
--
compound: COC(=O)Nc1nc2ccc(C(=O)c3cccc(I)c3)cc2[nH]1
unit-abbrev: %
growth: 33.6
--
compound: Clc1ccc(C2CC(c3cccc(Nc4ccncc4)c3)=NN2c2cc(Cl)cc(Cl)c2)cc1 (stereo not given)
unit-abbrev: %
growth: 89.2
--
compound: CC1=NNC(=O)C1CCC(=O)N/N=C(\C)c1ccc2ccccc2c1 (stereo not given)
unit-abbrev: %
growth: 114
--
compound: Nc1ncc(C#Cc2cncc(NC(=O)c3cccc(C(F)(F)F)c3)c2)c2cccnc12
unit-abbrev: %
growth: 94.9
--
compound: Clc1cc(Cl)cc(N2N=C(c3cccc(Nc4ccncc4)c3)CC2c2ccc3c(c2)OCO3)c1 (stereo not given)
unit-abbrev: %
growth: 81.9
--
compound: O=C(N=Nc1c(O)[nH]c2ccc(F)cc12)c1cc2ccccc2[nH]1
unit-abbrev: %
growth: 97.7
